Provide the recorded binding signal for the entries that follow.
testedTarget: THOC4 (ALYREF) (UniProt Q86V81 Q86V81:2-257)
assayComment: SPR
One number for each entry, in normalized Rmax.

So what does the record say about binding signal for GCCACCCGUCGGUUGCUAGA (ssRNA, 2'-OMe all, full PS) [DKLS659460 (SEQ 52)] ?
0.89

Take each entry in turn and give its binding signal.
1. GGUCGUAAUACUUUCACUUA (ssRNA, 2'-OMe all, full PS) [DKLS629224 (SEQ 12)]
2. UACCGCGUGCGACCCUCU (ssRNA, full PS) [DKLS371273 (SEQ 7)]
3. UGUGCUAUUCUGUGAAUU (ssRNA, 2'-OMe all, full PS) [DKLS484655 (SEQ 22)]
4. CCAGUAAGCCAGACUUGCAU (ssRNA, 2'-OMe all, full PS) [DKLS399970 (SEQ 61)]

1: 0.47; 2: 0.81; 3: 0.22; 4: 0.3

Take each entry in turn and give its binding signal.
1. GGCGAAUGAGACUUCUCUUA (ssRNA, 2'-OMe all, full PS) [DKLS693540 (SEQ 27)]
2. ACAUCGUUACCAGACAGUGUUA (ssRNA, 2'-OMe all, full PS) [DKLS687764 (SEQ 34)]
3. AGGCAGCAGUACGACGG (ssRNA, 2'-OMe all, full PS) [LSA_ATG 5' truncation 17 nt]
4. GCGGUGAACCGGAGUUGGCU (ssRNA, 2'-OMe all, full PS) [DKLS438994 (SEQ 66)]
5. CUGCCUAAGUAAAAAGUGUAAAC (ssRNA, 2'-OMe all, full PS) [DKLS687118 (SEQ 15)]
6. CAGCAGCAGAGUAUUUAUCAU (ssRNA, 2'-OMe all, full PS) [DKLS481254 (SEQ 31)]
7. UCUCCCAGCAUGUGCCAU (ssRNA, full PS) [DKLS658030 (SEQ 8)]
8. AGAGGCAGCAGUACGACG (ssRNA, 2'-OMe all, full PS) [LSA_ATG both-end truncation 18 nt]

[0.89, 0.75, 0.8, 1.11, 0.51, 0.46, 0.52, 0.81]
